# Protocol Summary: Therapeutic drug monitoring of serum ETI components and metabolites (UPLC-MS/MS), hourly for 9 hours after ingestion
# Format: in vivo
# Measurement Conditions: female, human, oral, full dose ETI, one pwCF, sampled hourly for 9 hours after ingestion, read-out: Area under the curve (AUC), serum
Assay Metric: AUC (ng·h/mL)
Express your answer in ng·h/mL, writing the number without its unit.

The compound listed as `CC(C)(CO)c1cc2cc(NC(=O)C3(c4ccc5c(c4)OC(F)(F)O5)CC3)c(F)cc2n1C[C@@H](O)CO` shows AUC equal to 92600
